inhibition at 1 µM values by entry
- system: recombinant IRAK-4 kinase (Homo sapiens, UniProt Q9NWZ3)
- Construct: purchased Millipore, USA
- Sequence (Q9NWZ3 1-460): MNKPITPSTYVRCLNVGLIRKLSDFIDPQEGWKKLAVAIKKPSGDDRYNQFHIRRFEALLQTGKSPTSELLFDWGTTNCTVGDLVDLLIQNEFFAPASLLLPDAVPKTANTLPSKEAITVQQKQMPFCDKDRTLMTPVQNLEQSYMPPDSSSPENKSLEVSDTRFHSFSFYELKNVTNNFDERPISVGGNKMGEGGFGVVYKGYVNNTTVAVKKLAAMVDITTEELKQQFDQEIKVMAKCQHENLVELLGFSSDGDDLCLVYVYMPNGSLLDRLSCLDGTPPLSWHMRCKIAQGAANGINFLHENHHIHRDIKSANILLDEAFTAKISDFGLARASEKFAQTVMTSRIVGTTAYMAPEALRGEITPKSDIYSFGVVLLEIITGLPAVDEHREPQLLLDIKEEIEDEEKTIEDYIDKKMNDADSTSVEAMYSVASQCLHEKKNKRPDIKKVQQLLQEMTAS
- experiment_summary: IRAK-4 Biochemical Assay (TR-FRET, percent inhibition)
- conditions: read-out: % inhibition of IRAK-4 @ 1 μM, compound at 1 μM; TR-FRET, 20 μM ATP, 100 nM Biotin Histone H3
Where a name gives a salt, the structure may show the parent alone.
Please answer using a numeric value trailed by its unit.

The examples below pair each entry with its known result.
>  <compound>
O=C(Nc1cc2oc(N3CCOCC3)nc2nc1N1CCCCC1)c1cnn2cccnc12 [Example 24]

>  <inhibition at 1 µM>
97%

$$$$
>  <compound>
Cc1cc(-c2nc(C(=O)Nc3cc4sc(N5CCOCC5)nc4nc3OC3CCC(N4CCOCC4)CC3)co2)ccn1 (stereo not shown) [Example 6, hydrochloride]

>  <inhibition at 1 µM>
100%

$$$$
>  <compound>
Nc1ccc(-c2cccc(C(=O)Nc3cc4oc(N5CCOCC5)nc4nc3N3CCOCC3)n2)cn1 [Example 92, hydrochloride]

>  <inhibition at 1 µM>
96%

$$$$

Look up inhibition at 1 µM for this compound: NC1CCN(c2ccn3ncc(C(=O)Nc4cc5sc(N6CCOCC6)nc5nc4C4CC4)c3n2)C1 (stereo not shown) [Example 23, hydrochloride] 97%

Look up inhibition at 1 µM for this compound: O=C(Nc1cc2sc(N3CCOCC3)nc2nc1N1CCCCC1)c1cccc(N2CCC(C(=O)O)CC2)n1 [Example 71] 96%

Look up inhibition at 1 µM for this compound: NCc1cn(-c2cccc(C(=O)Nc3cc4sc(N5CCOCC5)nc4nc3N3CCCCC3)n2)cn1 [Example 70, 2,2,2-trifluoroacetate] 99%

Look up inhibition at 1 µM for this compound: O=C(Nc1cc2sc(N3CCOCC3)nc2nc1N1CCCCC1)c1cccc(N2CC(C(=O)O)NC2=O)n1 (stereo not shown) [Example 49] 96%

---

- system: recombinant IRAK-4 kinase (Homo sapiens, UniProt Q9NWZ3)
- Construct: purchased Millipore, USA
- experiment_summary: IRAK-4 Biochemical Assay (TR-FRET, percent inhibition)
- conditions: read-out: % inhibition of IRAK-4 @ 1 μM, compound at 1 μM; TR-FRET, 20 μM ATP, 100 nM Biotin Histone H3
Where a name gives a salt, the structure may show the parent alone.
inhibition at 1 µM values by entry

The examples below pair each entry with its known result.
>  <molecule>
Cc1ccc(-c2nc3nc(N4CCOCC4)oc3cc2NC(=O)c2coc(-c3ccnc(C)c3)n2)nc1

>  <reported_measurement>
100%

$$$$
>  <molecule>
O=C(Nc1cc2sc(N3CCOCC3)nc2nc1N1CCCCC1)c1cccc(N2CCC[C@@H](O)C2)n1

>  <reported_measurement>
99%

$$$$
>  <molecule>
O=C(Nc1cc2sc(N3CCOCC3)nc2nc1C1CC1)c1cnn2cccnc12

>  <reported_measurement>
97%

$$$$
>  <molecule>
Cc1cc(-c2c[nH]c(C(=O)Nc3cc4sc(N5CCOCC5)nc4nc3N3CC[C@@H](O)C3)c2)ccn1

>  <reported_measurement>
97%

$$$$
>  <molecule>
O=C(Nc1cc2sc(N3CCOCC3)nc2nc1N1CCCCC1)c1cncc(N2CC[C@H](O)C2)n1

>  <reported_measurement>
95%

$$$$
>  <molecule>
Cc1cc(-c2ccc(C(=O)Nc3cc4oc(N5CCOCC5)nc4nc3N3CC[C@@H](O)C3)o2)ccn1 [Example 91, hydrochloride]

>  <reported_measurement>
92%

$$$$
>  <molecule>
O=C(Nc1cc2sc(N3CCOCC3)nc2nc1N1CCCCC1)c1cccc(N2C3CCC2CC(O)C3)n1 (stereo not drawn)

>  <reported_measurement>
94%

$$$$
>  <molecule>
O=C(Nc1cc2sc(N3CCOCC3)nc2nc1N1CCCCC1)c1cccc(NC2CCC(CO)CC2)n1 (stereo not drawn)

>  <reported_measurement>
94%

$$$$
>  <molecule>
O=C(Nc1cc2oc(N3CCOCC3)nc2nc1C1CC1)c1cnn2cccnc12 [Example 107, hydrochloride]

>  <reported_measurement>
92%

$$$$
>  <molecule>
O=C(Nc1cc2sc(N3CCOCC3)nc2nc1N1CCCCC1)c1cccc(N2CC3CC2CO3)n1 (stereo not drawn)

>  <reported_measurement>
97%

$$$$

Look up inhibition at 1 µM for this molecule: `Cn1cc(-c2nc(C(=O)Nc3cc4sc(N5CCOCC5)nc4nc3N3CCCCC3)co2)ccc1=O` 98%

Values from patent US20180208605A1
